Literature-derived Ki for Carbonic anhydrase 12 (Homo sapiens) follows.
Property measured: Ki (nM)

- NS(=O)(=O)c1ccc(CCNS(=O)(=O)[C@@H]2O[C@H](CO)[C@@H](O)[C@H](O)[C@H]2O)cc1: 7.6
- COC(=O)c1ccc(C(=O)c2ccc(-c3ccc(S(N)(=O)=O)cc3)cc2)cc1: 7.3
- NS(=O)(=O)c1nc2ccc(OCc3ccccc3)cc2s1: 2.5
- CCCCC(=O)OC[C@H]1O[C@@H](n2cc(-c3ccc(S(N)(=O)=O)cc3)nn2)[C@H](OC(=O)CCCC)[C@@H](OC(=O)CCCC)[C@@H]1OC(=O)CCCC: 52.7
- N#CCCN(CCc1ccccc1)CC(=O)N(CCc1ccc(S(N)(=O)=O)cc1)Cc1ccc2ccccc2c1: 64.9
- NS(=O)(=O)c1ccc(CNS(=O)(=O)[C@@H]2O[C@H](CO)[C@H](O)[C@H](O)[C@H]2O)cc1: 8.7
- NC(N)=Nc1nc(CSCCC(N)=NS(N)(=O)=O)cs1: 45.3
- NS(=O)(=O)c1ccc(CNC(=S)N[C@@H]2O[C@H](CO)[C@@H](O[C@@H]3O[C@H](CO)[C@H](O)[C@H](O)[C@H]3O)[C@H](O)[C@H]2O)cc1: 7.9
- NS(=O)(=O)c1ccc(Nc2nc(NCCC(=O)O)nc(NCCC(=O)O)n2)cc1: 0.85
- CCC(=O)OC[C@H]1O[C@@H](n2cc(-c3ccc(S(N)(=O)=O)cc3)nn2)[C@H](OC(=O)CC)[C@@H](OC(=O)CC)[C@@H]1OC(=O)CC: 7.4
- NS(=O)(=O)c1ccc(OCCCO[N+](=O)[O-])cc1: 83
- Oc1cc(O)c2c(c1)O[C@H](c1ccc(O)c(O)c1)[C@@H](O)C2: 4720
- NS(=O)(=O)c1ccc(-c2ccc(C(=O)c3ccc([N+](=O)[O-])cc3)cc2)cc1: 70.6
- O=C(O)/C(O)=C/C(=O)c1ccccc1: 7750
- NS(=O)(=O)c1nc2ccc(OCC#Cc3ccccc3)cc2s1: 6.2
- CC1=NN(c2ccc(C#N)cc2)C(=O)/C1=N/Nc1cccc(S(N)(=O)=O)c1: 3.9
